- Tested on: PC-3 prostate
- method.notes: NCI tumour cell line growth inhibition, 48 h
Measured TGI accompanies every entry in the list below.

COc1c2cc(C(C)(C)C)cc1CSCc1cc(C(C)(C)C)cc(c1OC)CCCCC2	> 50 µM

TGI measured on COc1cc2c(cc1OC)C13CCN4CC5=CCOC(CC(=O)O)C(C5CC41)C3N2 (configuration not stated) = > 100 µM

TGI measured on CN(C)CC1CCC/C(=C\c2ccc(N(C)C)cc2)C1=O (configuration not stated) = 32.2 µM

TGI measured on N#CC(c1ccc(O)cc1)N1CCN(C(C#N)c2ccc(O)cc2)CC1 (configuration not stated) = > 100 µM

TGI measured on CC(C)(C)C1CCC2c3c([nH]c4ccccc34)C3C(=O)N(c4cc(Br)cc(Br)c4)C(=O)C3C2C1 (configuration not stated) = 33.2 µM

TGI measured on COC1=CC(c2ccc[nH]2)=N/C1=C\c1[nH]c(C)c(C(=O)CCC(=O)Oc2ccc3c(c2)CCC2C3CC[C@]3(C)C(=O)CC[C@@H]23)c1C (some centres not stated) = > 100 µM
